src = PubChem BioAssay (NCI)

experiment notes: NCI Yeast Anticancer Drug Screen. Data for the mlh1 rad18 strain (AID 175)
condition context: S. cerevisiae mlh1 rad18 strain growth inhibition; at 50.0 µM; hits give high values
Protocol: Growth inhibition of yeast strains with defined genetic alterations is measured as a screen for potential anti-cancer activity. Selected strains with alterations in DNA damage repair or cell cycle control were exposed to compounds and growth inhibition was measured relative to vehicle treated controls. The strain used in this assay is mlh1 rad18
This is part of a sample that, as a whole, favours compounds with a hit. Of some 79,000 tested, about 15% had one in any assay.
measured parameter: growth inhibition (%)
Give bare numbers, in %.

{"columns": ["compound", "growth inhibition, %"],
 "data": [
  ["O=C(O)c1ccc([N+](=O)[O-])c([N+](=O)[O-])c1", 24.6]
]}

Please state, for each entry, its recorded growth inhibition.
1. N#Cc1ccc(Cc2ccccn2)cc1Cl
2. O=C(O)c1ccc(CI)cc1

4.25
-16.9

====

experiment notes: NCI Yeast Anticancer Drug Screen. Data for the cln2 rad14 strain (AID 165);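 also: 0% = growth equal to vehicle treated cultures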
condition context: S. cerevisiae cln2 rad14 strain, at 50.0 µM, hits give high values
Compounds without any hit were thinned out: in the full panel of roughly 79,000, 15% have a hit.
measured parameter: growth inhibition (%)
Answers are plain numbers, in %.

Recorded growth inhibition, per entry:
{"columns": ["compound", "unit spec", "growth inhibition"],
 "data": [
  ["CC(C)=CCN=C(N)N", "%", -8],
  ["CC(C)CN(CC(C)C)[N+](=O)[O-]", "%", 4.05],
  ["CC(C)NCCc1c[nH]c2ccccc12", "%", -60],
  ["COc1cc(C2c3cc4c(cc3C(O)[C@H]3COC(=O)[C@@H]23)OCO4)cc(OC)c1O (stereo not given in full)", "%", 16.6],
  ["CC[N+](CC)(CC)CC#CC[N+](CC)(CC)CC", "%", 1.45],
  ["CC1(C[N+](C)(C)C)COC(C)(C)O1 (stereo not given)", "%", -2.85]
]}

Please state, for each entry, its recorded growth inhibition.
1. Cc1cc(S(=O)(=O)F)ccc1NC(=O)/C=C/c1ccc([N+](=O)[O-])cc1
2. N#CCCCCN=[N+]=[N-]
3. O=C(CC(=O)C(F)(F)F)c1cccs1.O=C(CC(=O)C(F)(F)F)c1cccs1.O=C(CC(=O)C(F)(F)F)c1cccs1.[Tb]
4. NC(Cc1ccccc1)c1cccc2c1CCCC2 (stereo not given)

1. 0.55
2. 3.25
3. -27.5
4. -21.8

====

experiment notes: NCI Yeast Anticancer Drug Screen. Data for the mec2-1 strain (AID 157)
condition context: S. cerevisiae mec2-1 strain, at 50.0 µM
Compounds without any hit were thinned out: in the full panel of roughly 79,000, 15% have a hit. Active and inactive are the calls of the source. Cut-off read from the data, not from the text of the source: active = growth inhibition above about 70%; inactive = the rest.
Allowed answers: active, inactive

{"columns": ["molecule", "group"],
 "data": [
  ["CS(=O)(=O)NC(=NCCOS(C)(=O)=O)N[N+](=O)[O-]", "inactive"],
  ["C(#CP(c1ccccc1)c1ccccc1)c1ccccc1", "inactive"],
  ["C=CC[As+](c1cccc2ccccc12)(c1cccc2ccccc12)c1cccc2ccccc12", "inactive"],
  ["c1ccc2sc(SNC3CCCCC3)nc2c1", "inactive"],
  ["OCCN1CCN(c2cccc(Cl)c2)CC1", "inactive"]
]}

Which outcome was entered for the molecule "O=c1[nH]cc(Cn2cccc3c(=O)ncnc2-3)c(=O)[nH]1" in this test?
inactive

Which outcome was entered for the molecule "O=C(CC(=O)C(F)(F)F)c1ccco1.[Co]" in this test?
inactive
